Target: COX-2 (Homo sapiens, UniProt P35354)
Construct: purchased Cayman Chemical
Sequence (P35354 18-604): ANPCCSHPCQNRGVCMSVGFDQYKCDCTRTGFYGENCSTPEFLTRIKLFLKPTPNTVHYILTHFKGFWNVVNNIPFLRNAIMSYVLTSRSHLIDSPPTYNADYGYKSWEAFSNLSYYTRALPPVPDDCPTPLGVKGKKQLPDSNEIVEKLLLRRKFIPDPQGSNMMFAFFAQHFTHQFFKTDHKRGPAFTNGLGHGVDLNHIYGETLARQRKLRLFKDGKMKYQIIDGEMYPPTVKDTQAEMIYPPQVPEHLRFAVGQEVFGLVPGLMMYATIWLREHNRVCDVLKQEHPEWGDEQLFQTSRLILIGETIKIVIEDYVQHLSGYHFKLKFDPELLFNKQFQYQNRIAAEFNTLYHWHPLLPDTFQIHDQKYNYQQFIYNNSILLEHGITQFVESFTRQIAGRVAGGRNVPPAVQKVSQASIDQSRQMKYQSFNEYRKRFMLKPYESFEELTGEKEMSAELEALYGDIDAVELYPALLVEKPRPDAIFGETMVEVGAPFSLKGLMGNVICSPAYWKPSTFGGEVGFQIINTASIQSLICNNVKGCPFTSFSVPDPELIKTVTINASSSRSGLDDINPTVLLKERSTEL
Assay: COX Inhibitor Screening Assay Kit, COX-2 inhibition
Assay type: biochemical
Details: CDXs 20 µmol/L; mean ± standard deviation, triplicate in two independent days

# compound, percentage of enzyme inhibition, COX-2
rows = [
    ("COc1ccc2c(=O)c3cc(C(=O)N[C@@H](CO)C(C)C)ccc3oc2c1 [(R)-(+)-CDX2]", "73.2 ± 0.4%"),
    ("COc1ccc2c(=O)c3cc(C(=O)N[C@@H](C)CO)ccc3oc2c1 [(S)-(+)-CDX3]", "93.4 ± 11.4%"),
    ("COc1ccc2c(=O)c3cc(C(=O)N[C@H](CO)c4ccccc4)ccc3oc2c1 [(S)-(−)-CDX1]", "80.1 ± 12.8%"),
    ("COc1ccc2c(=O)c3cc(C(=O)N[C@@H](CO)c4ccccc4)ccc3oc2c1 [(R)-(+)-CDX1]", "84.7 ± 5.7%"),
    ("COc1ccc2c(=O)c3cc(C(=O)N[C@H](CO)C(C)C)ccc3oc2c1 [(S)-(−)-CDX2]", "85.7 ± 4.5%"),
    ("COc1ccc2c(=O)c3cc(C(=O)N[C@H](C)CO)ccc3oc2c1 [(R)-(−)-CDX3]", "75.1 ± 7.2%"),
]

---

Target: COX-1 (Ovis aries, UniProt P05979)
Construct: purchased Cayman Chemical
Sequence (P05979 25-600): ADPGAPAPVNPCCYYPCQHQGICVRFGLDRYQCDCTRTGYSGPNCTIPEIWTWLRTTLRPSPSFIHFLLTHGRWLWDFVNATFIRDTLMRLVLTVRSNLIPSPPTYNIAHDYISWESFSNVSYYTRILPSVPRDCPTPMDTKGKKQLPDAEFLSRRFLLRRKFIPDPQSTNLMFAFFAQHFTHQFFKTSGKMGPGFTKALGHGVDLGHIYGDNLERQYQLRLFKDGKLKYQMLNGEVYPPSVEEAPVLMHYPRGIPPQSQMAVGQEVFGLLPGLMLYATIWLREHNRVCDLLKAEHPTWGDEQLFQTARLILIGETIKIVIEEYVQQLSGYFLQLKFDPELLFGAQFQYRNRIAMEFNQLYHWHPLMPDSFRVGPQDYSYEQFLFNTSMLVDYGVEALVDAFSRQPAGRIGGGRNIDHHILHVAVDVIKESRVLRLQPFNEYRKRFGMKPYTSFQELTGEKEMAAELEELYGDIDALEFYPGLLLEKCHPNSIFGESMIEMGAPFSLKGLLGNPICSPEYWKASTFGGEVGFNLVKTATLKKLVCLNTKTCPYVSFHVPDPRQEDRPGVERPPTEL
Assay: COX Inhibitor Screening Assay Kit, COX-1 inhibition
Type: biochemical, ovine
Settings: CDXs 20 µmol/L; mean ± standard deviation, triplicate in two independent days
Protocol: The effect of CDXs previously obtained in our group as inhibitors of membrane located enzymes that might be involved in inflammatory processes, namely COX-1 and COX-2, was evaluated. […] The evaluation of the inhibition of COX-1 and COX-2 by CDXs was conducted using the commercially available COX (ovine/human) Inhibitor Screening Assay Kit (Cayman Chemical, Michigan, MI, USA). […] Each compound was analysed in two independent days, in triplicate. […]
Label TRUE when percentage of enzyme inhibition, COX-1 is at or above 80%; otherwise label FALSE.

# compound, tested_on, class
data = [
    ("COc1ccc2c(=O)c3cc(C(=O)N[C@@H](CO)C(C)C)ccc3oc2c1 [(R)-(+)-CDX2]", "COX-1 (Ovis aries, UniProt P05979)", "FALSE"),
    ("COc1ccc2c(=O)c3cc(C(=O)N[C@H](CO)C(C)C)ccc3oc2c1 [(S)-(−)-CDX2]", "COX-1 (Ovis aries, UniProt P05979)", "TRUE"),
    ("COc1ccc2c(=O)c3cc(C(=O)N[C@@H](C)CO)ccc3oc2c1 [(S)-(+)-CDX3]", "COX-1 (Ovis aries, UniProt P05979)", "TRUE"),
    ("COc1ccc2c(=O)c3cc(C(=O)N[C@H](CO)c4ccccc4)ccc3oc2c1 [(S)-(−)-CDX1]", "COX-1 (Ovis aries, UniProt P05979)", "TRUE"),
    ("COc1ccc2c(=O)c3cc(C(=O)N[C@H](C)CO)ccc3oc2c1 [(R)-(−)-CDX3]", "COX-1 (Ovis aries, UniProt P05979)", "FALSE"),
]

---

target: HSA (Homo sapiens); construct: purchased Sigma-Aldrich; assay: Interaction with human serum albumin by fluorescence quenching; format: binding; details: HSA 2 µM, pH 7.4, 25 °C; mean ± standard deviation of triplicate runs
Sequence (P02768 25-609): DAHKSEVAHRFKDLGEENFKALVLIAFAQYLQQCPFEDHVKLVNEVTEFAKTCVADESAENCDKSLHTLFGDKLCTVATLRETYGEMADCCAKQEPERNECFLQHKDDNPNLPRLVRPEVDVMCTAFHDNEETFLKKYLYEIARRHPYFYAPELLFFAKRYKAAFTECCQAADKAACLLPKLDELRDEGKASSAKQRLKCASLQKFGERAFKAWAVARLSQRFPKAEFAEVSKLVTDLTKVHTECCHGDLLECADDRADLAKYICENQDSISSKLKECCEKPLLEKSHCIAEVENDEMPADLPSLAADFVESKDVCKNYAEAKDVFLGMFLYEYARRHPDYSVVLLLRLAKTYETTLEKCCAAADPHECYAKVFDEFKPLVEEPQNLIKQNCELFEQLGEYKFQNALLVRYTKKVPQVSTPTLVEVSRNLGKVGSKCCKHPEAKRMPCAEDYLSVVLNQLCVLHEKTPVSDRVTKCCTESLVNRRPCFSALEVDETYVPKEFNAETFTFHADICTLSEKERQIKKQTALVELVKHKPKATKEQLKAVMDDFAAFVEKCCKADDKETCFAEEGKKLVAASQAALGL
experimental_endpoint: Ymax, maximum percentage of HSA fluorescence quenching (%)

# compound, observed_result
rows = [
    ("COc1ccc2c(=O)c3cc(C(=O)N[C@H](CO)c4ccccc4)ccc3oc2c1 [(S)-(−)-CDX1]", 105.3),
    ("COc1ccc2c(=O)c3cc(C(=O)N[C@@H](CO)C(C)C)ccc3oc2c1 [(R)-(+)-CDX2]", 108.2),
    ("COc1ccc2c(=O)c3cc(C(=O)N[C@@H](C)CO)ccc3oc2c1 [(S)-(+)-CDX3]", 116.2),
    ("COc1ccc2c(=O)c3cc(C(=O)N[C@H](C)CO)ccc3oc2c1 [(R)-(−)-CDX3]", 113.2),
    ("COc1ccc2c(=O)c3cc(C(=O)N[C@@H](CO)c4ccccc4)ccc3oc2c1 [(R)-(+)-CDX1]", 109.6),
    ("COc1ccc2c(=O)c3cc(C(=O)N[C@H](CO)C(C)C)ccc3oc2c1 [(S)-(−)-CDX2]", 107.4),
]

---

biological target: HSA (Homo sapiens); assay: Interaction with human serum albumin by fluorescence quenching; details: HSA 2 µM, pH 7.4, 25 °C; mean ± standard deviation of triplicate runs; read-out: Kd, dissociation constant of CDX-HSA
Quick reference for Kd among some molecules
experimental_endpoint: Kd (µM)

# molecule, observed_result
data = [
    ("COc1ccc2c(=O)c3cc(C(=O)N[C@@H](CO)C(C)C)ccc3oc2c1 [(R)-(+)-CDX2]", 29.2),
    ("COc1ccc2c(=O)c3cc(C(=O)N[C@H](CO)c4ccccc4)ccc3oc2c1 [(S)-(−)-CDX1]", 23.6),
    ("COc1ccc2c(=O)c3cc(C(=O)N[C@H](CO)C(C)C)ccc3oc2c1 [(S)-(−)-CDX2]", 24.7),
    ("COc1ccc2c(=O)c3cc(C(=O)N[C@@H](CO)c4ccccc4)ccc3oc2c1 [(R)-(+)-CDX1]", 61.8),
    ("COc1ccc2c(=O)c3cc(C(=O)N[C@H](C)CO)ccc3oc2c1 [(R)-(−)-CDX3]", 26.4),
    ("COc1ccc2c(=O)c3cc(C(=O)N[C@@H](C)CO)ccc3oc2c1 [(S)-(+)-CDX3]", 31.4),
]
